Provide the recorded GI50 at 24 h for the entries that follow.
test: Mammalian cytotoxicity, CellTiter-Glo viability assay; type: cell-based, human; settings: human, HeLa cells
One number for each entry, in µg/mL.

Example molecules with recorded GI50 at 24 h:
Molecule	Numeric Value
C=C1CCCC2Nc3c(F)cc(Br)cc3C12CCNS(=O)(=O)c1ccc(I)cc1 (stereo not drawn) [Cpd 13e]	19.6
C=C1CCCC2Nc3c(F)cc(Br)cc3C12CCNS(=O)(=O)c1ccc(Br)c(C(F)(F)F)c1 (stereo not drawn) [Cpd 13m]	8.3
C=C1CCCC2Nc3c(F)cc(Br)cc3C12CCNS(=O)(=O)c1ccc(Br)cc1 (stereo not drawn) [Cpd 13d]	22
C=C1CCCC2Nc3ccc(Br)cc3C12CCNS(=O)(=O)c1ccc(Br)cc1 (stereo not drawn) [Cpd 12g]	40
C=C1CCCC2Nc3c(F)cc(Br)cc3C12CCNS(=O)(=O)c1ccc(C#N)cc1 (stereo not drawn) [Cpd 13h]	17

Continue with the molecule presented below.
# lookup: GI50 at 24 h of C=C1CCCC2Nc3c(F)cc(Br)cc3C12CCNS(=O)(=O)c1ccc(Br)cc1C(F)(F)F (stereo not drawn) [Cpd 13l] 21

----------
assay: Mammalian cytotoxicity, CellTiter-Glo viability assay; format: cell-based, human; details: human, HeLa cells
Reported Property: GI50 at 24 h

Example compounds with recorded GI50 at 24 h:
Compound	GI50 at 24 h
C=C1CCCC2Nc3c(Cl)cc(Cl)cc3C12CCNS(=O)(=O)c1ccc(Cl)cc1 (centres unmarked)	13.6 µg/mL
C=C1CCCC2Nc3c(F)cc(Br)cc3C12CCNS(=O)(=O)c1ccc(Cl)nc1 (centres unmarked) [Cpd 13r]	16.7 µg/mL

I'm hoping you can list GI50 at 24 h for every compound here, please.
1. C=C1CCCC2Nc3ccc(Br)cc3C12CCNS(=O)(=O)c1ccc(Cl)c(Cl)c1 (centres unmarked) [Cpd 12i]
2. C=C1CCC[C@@H]2Nc3c(F)cc(Br)cc3[C@]12CCNS(=O)(=O)c1ccc(OC(F)F)c(Cl)c1 (relative stereo)
3. C=C1CCCC2Nc3c(F)cc(Br)cc3C12CCNS(=O)(=O)c1ccc(C)cc1 (centres unmarked) [Cpd 13b]
4. C=C1CCCC2Nc3c(F)cc(Br)cc3C12CCNS(=O)(=O)c1ccc(Cl)cc1 (centres unmarked)
5. C=C1CCCC2Nc3ccc(Br)cc3C12CCNS(=O)(=O)c1ccc(I)cc1 (centres unmarked) [Cpd 12h]
6. C=C1CCCC2Nc3c(F)cc(Br)cc3C12CCNS(=O)(=O)c1cncc(Br)c1 (centres unmarked) [Cpd 13q]

1: 12.8 µg/mL; 2: 15.4 µg/mL; 3: 22 µg/mL; 4: 18.1 µg/mL; 5: 33 µg/mL; 6: 11.2 µg/mL

----------
assay: Mammalian toxicity, CellTiter Glo viability assay; type: cell-based, human; conditions: human, HepG2 cells
Reported Property: GI50

# lookup: GI50 of C=C1CCC[C@@H]2Nc3ccc(Br)cc3[C@]12CCNS(=O)(=O)c1ccc(Cl)cc1 (stereo in doubt) [Of1] ~8.9 µg/mL

----------
experiment: Mammalian cytotoxicity, CellTiter-Glo viability assay; format: cell-based, human; conditions: human, HeLa cells
Reported Property: GI50 at 24 h (µg/mL)
Give bare numbers, in µg/mL.

Example compounds with recorded GI50 at 24 h:
Compound	Numeric Value
C=C1CCCC2Nc3c(F)cc(Br)cc3C12CCNS(=O)(=O)c1ccc(Br)c(F)c1 (stereo not shown) [Cpd 13k]	17.5
C=C1CCCC2Nc3ccc(Cl)cc3C12CCNS(=O)(=O)c1ccc(Cl)cc1 (stereo not shown)	35
C=C1CCCC2Nc3c(F)cc(Br)cc3C12CCNS(=O)(=O)c1ccc(Br)c(Br)c1 (stereo not shown) [Cpd 13j]	20

# lookup: GI50 at 24 h of C=C1CCCC2Nc3c(F)cc(Br)cc3C12CCNS(=O)(=O)c1ccc(NC(C)=O)cc1 (stereo not shown) [Cpd 13g] 32

----------
experiment: Mammalian cytotoxicity, CellTiter-Glo viability assay; type: cell-based, human; settings: human, HeLa cells
Provide the recorded GI50 at 24 h for the entries that follow.
Numbers only, in µg/mL.

Compound	Reported Property	Units	Numeric Value
C=C1CCCC2Nc3c(F)cc(Br)cc3C12CCNS(=O)(=O)c1ccc(Br)c(C)c1 (stereo not drawn) [Cpd 13o]	GI50 at 24 h	µg/mL	12.5
C=C1CCCC2Nc3c(F)cc(Br)cc3C12CCNS(=O)(=O)c1ccc(Br)cc1C (stereo not drawn) [Cpd 13n]	GI50 at 24 h	µg/mL	13.5
C=C1CCCC2Nc3c(F)cc(Br)cc3C12CCNS(=O)(=O)c1ccc(C(F)(F)F)cc1 (stereo not drawn) [Cpd 13i]	GI50 at 24 h	µg/mL	8.7

I'm hoping you can list GI50 at 24 h for every compound here, please.
1. C=C1CCCC2Nc3c(F)cc(Br)cc3C12CCNS(=O)(=O)c1cc(Br)c(Br)s1 (stereo not drawn) [Cpd 13p]
2. C=C1CCCC2Nc3c(F)cc(Br)cc3C12CCNS(=O)(=O)c1ccc(F)cc1 (stereo not drawn) [Cpd 13c]

1. 14.6
2. 18.3

----------
Assay: Mammalian cytotoxicity, CellTiter-Glo viability assay
Format: cell-based, human
Details: human, HeLa cells
Description: To evaluate the cytotoxicity of Of1 in mammalian cells, a cell viability assay was carried out using CellTiter-Glo luminescent cell viability assay kit (Promega). […] The luminescence of each sample was recorded in an Envision Multilabel Plate Reader (Perkin Elmer).
Provide the recorded GI50 at 24 h for the entries that follow.
Answers are plain numbers, in µg/mL.

Example compounds with recorded GI50 at 24 h:
Compound	GI50 at 24 h / µg/mL
C=C1CCCC2Nc3c(F)cc(Br)cc3C12CCNS(=O)(=O)c1cc2ccccc2o1 (stereo not shown) [Cpd 13t]	12.3
C=C1CCCC2Nc3c(F)cc(Br)cc3C12CCNS(=O)(=O)c1cn(C)cn1 (stereo not shown) [Cpd 13s]	23
C=C1CCCC2Nc3c(F)cc(Br)cc3C12CCNS(=O)(=O)c1ccc(Cl)c(Cl)c1 (stereo not shown) [Cpd 13f]	31

# lookup: GI50 at 24 h of C=C1CCCC2Nc3c(F)cc(Br)cc3C12CCNS(=O)(=O)c1ccc(OC)cc1 (stereo not shown) [Cpd 13a] 49
